- System Under Test: Sodium- and chloride-dependent GABA transporter 3 (Mus musculus)
- Sequence (P31650 whole entry): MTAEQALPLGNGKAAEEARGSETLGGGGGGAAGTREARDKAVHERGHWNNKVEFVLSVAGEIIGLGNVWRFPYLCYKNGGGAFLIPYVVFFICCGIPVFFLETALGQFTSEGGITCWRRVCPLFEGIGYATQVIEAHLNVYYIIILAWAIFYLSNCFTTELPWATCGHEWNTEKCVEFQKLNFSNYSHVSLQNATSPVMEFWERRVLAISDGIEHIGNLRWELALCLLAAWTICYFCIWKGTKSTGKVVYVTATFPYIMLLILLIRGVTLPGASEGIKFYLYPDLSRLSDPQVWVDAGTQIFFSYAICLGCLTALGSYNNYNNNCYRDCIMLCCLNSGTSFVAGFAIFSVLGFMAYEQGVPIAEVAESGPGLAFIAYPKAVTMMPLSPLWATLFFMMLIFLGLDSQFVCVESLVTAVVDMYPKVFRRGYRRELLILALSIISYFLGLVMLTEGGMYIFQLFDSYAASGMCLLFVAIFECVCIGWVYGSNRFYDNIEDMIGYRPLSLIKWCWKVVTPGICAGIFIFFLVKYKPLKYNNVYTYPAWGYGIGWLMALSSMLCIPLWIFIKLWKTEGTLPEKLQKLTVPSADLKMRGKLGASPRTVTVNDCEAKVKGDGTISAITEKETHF
- Assay Explanation: Inhibition of mouse GAT3-mediated [3H]GABA uptake expressed in human HEK cells
Readout Label: pIC50
# reply with the number alone; pIC50 is -log10 of concentration in mol/L

Worked cases, pIC50 given:
CC(C)(C)CC(C)(C)n1nnnc1CNCCC=C(c1ccccc1)c1ccccc1: 4.91
CC(C)(C)CC(C)(C)n1nnnc1CNC(c1ccccc1)c1ccccc1: 4.22

We next turn to a different compound, shown below.
Query string: I am curious: what pIC50 value has been reported for C(CNCc1nnnn1C1CCCCC1)=C(c1ccccc1)c1ccccc1 ?
Result string: 4.74
